- tested_target: TyR1 (Chilo suppressalis)
- Sequence (whole entry): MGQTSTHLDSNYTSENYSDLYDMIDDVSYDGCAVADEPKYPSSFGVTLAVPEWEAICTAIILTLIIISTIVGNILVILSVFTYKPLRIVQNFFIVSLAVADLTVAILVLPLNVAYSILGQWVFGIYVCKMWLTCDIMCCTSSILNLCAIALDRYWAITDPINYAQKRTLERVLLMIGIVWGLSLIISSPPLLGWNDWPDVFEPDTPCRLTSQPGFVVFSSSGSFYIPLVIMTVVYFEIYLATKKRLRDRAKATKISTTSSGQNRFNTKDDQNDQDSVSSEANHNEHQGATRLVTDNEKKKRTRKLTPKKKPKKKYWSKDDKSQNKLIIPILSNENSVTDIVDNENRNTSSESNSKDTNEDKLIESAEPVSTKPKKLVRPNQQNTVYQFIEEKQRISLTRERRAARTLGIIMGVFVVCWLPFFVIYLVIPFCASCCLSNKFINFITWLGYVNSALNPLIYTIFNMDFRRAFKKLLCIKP
- protocol_details: Agonist activity at Chilo suppressalis (rice stem borer) tyramine receptor TyR1 expressed in HEK293 cells assessed as reduction in forskolin-induced cAMP accumulation at 10 uM incubated for 20 min
- Format: functional, cell-based
Structures can show the parent of a compound that is named as a salt. Active and inactive are the calls of the source. The calls are words filed in the database; no cut-off is given here.
property_measured: Activity

See these solved cases before continuing.
Clc1cccc(Cl)c1NC1=NCCN1: Active
Cc1cc(Cl)ccc1/N=C/N(C)C: inactive
NCCc1c[nH]c2ccc(O)cc12: inactive
Cc1ccc(/N=C/N(C)/C=N/c2ccc(C)cc2C)c(C)c1: Active
NCCc1ccc(O)cc1 [TYRAMINE HYDROCHLORIDE]: 75%

Count: 2. Required value per item: Activity.
1. NCC(O)c1ccc(O)cc1 (racemic) [OCTOPAMINE HYDROCHLORIDE]
2. c1ccc2c(CC3=NCCN3)cccc2c1

*A*
56%
inactive

====

Consider the following molecules; for each one, report its EC50.
- tested_target: UniProt H9TVJ1
- protocol_details: Agonist activity at Chilo suppressalis (rice stem borer) tyramine receptor TyR1 expressed in HEK293 cells assessed as reduction in forskolin-induced cAMP accumulation incubated for 20 min
Where a name gives a salt, the structure may show the parent alone.
Numbers only, in nM.

NCC(O)c1ccc(O)cc1 (racemic) [OCTOPAMINE HYDROCHLORIDE]: 978

GET /value?item= NCCc1ccc(O)cc1 [TYRAMINE HYDROCHLORIDE] &field=EC50 returns 369

// provenance: ChEMBL document CHEMBL3046273
